Tested on: Renilla
PROCEDURE_TEXT: Renilla signal in NR2F6 agonist screening, cmpd/DMSO
Assay type: cell-based
CONDITION_CONTEXT: Renilla, Table 14; 10 uM; read-out: Renilla F4, cmpd/DMSO (mean)
PROPERTY: fold induction at 10 µM

For Cc1ccc(NC(=O)c2noc3c2CCCC3)cc1C , what is its reported fold induction at 10 µM? 1.1

For COC(=O)c1cnc2c(C)cc(C)cc2c1NCCCN(C)C , what is its reported fold induction at 10 µM? 0.3

For COC(=O)c1ccc2oc(=O)c(S(=O)(=O)c3ccccc3)cc2c1 , what is its reported fold induction at 10 µM? 1.2

For Cc1ccc(NC(=O)c2noc3c2CC(C)CC3)cc1C (stereo not shown) , what is its reported fold induction at 10 µM? 0.8

For Cc1cc(C)n2nc(CNS(=O)(=O)c3c(F)c(F)c(F)c(F)c3F)nc2n1 , what is its reported fold induction at 10 µM? 0.3

For Cc1cc(C)nc(Sc2nnc(-c3ccc(C)c(S(=O)(=O)N4CCOCC4)c3)c3ccccc23)n1 , what is its reported fold induction at 10 µM? 0.3

For Cc1cc(C)n2nc(CNS(=O)(=O)c3ccc(Cl)cc3)nc2n1 , what is its reported fold induction at 10 µM? 1.1

For CCc1cccc(Nc2cnn(-c3nc4ccccc4s3)c(=O)c2Cl)c1 , what is its reported fold induction at 10 µM? 0.3

For Cc1cc(NC(=O)CCS(=O)(=O)c2nc(-c3ccc4c(c3)OCO4)cc(C(F)(F)F)n2)no1 , what is its reported fold induction at 10 µM? 0.2

For Cc1ccc(NC(=O)c2noc3c2CC(C(C)(C)C)CC3)cc1C (stereo not shown) , what is its reported fold induction at 10 µM? 0.8

For CCOC(=O)c1cnc2c(C)cc(C)cc2c1NCCCN(C)C , what is its reported fold induction at 10 µM? 0.3

For CCOC(=O)c1cnc2c(C)cccc2c1NCCCN(C)C , what is its reported fold induction at 10 µM? 0.2

For O=C(COc1ccccc1C(=O)N1CCOCC1)NCCc1ccccc1 , what is its reported fold induction at 10 µM? 1.1

For Cc1cc(C)c2ncc(C(N)=O)c(NCCCN(C)C)c2c1 , what is its reported fold induction at 10 µM? 0.8

For Cc1cc(C)n2nc(CNS(=O)(=O)c3ccc(F)cc3)nc2n1 , what is its reported fold induction at 10 µM? 0.7

For CCc1cc(C(=O)Nc2ccn(Cc3ccc(C)cc3)n2)no1 , what is its reported fold induction at 10 µM? 0.6

For CCOC(=O)c1cnc2c(C)cc(C)cc2c1N1CCC(CO)CC1 , what is its reported fold induction at 10 µM? 0.6

For CCOC(=O)c1cnc2c(C)cc(C)cc2c1NCc1ccccc1 , what is its reported fold induction at 10 µM? 0.2

For O=C(Nc1cccc(O)c1)c1cc(-c2ccc(Cl)c(Cl)c2)on1 , what is its reported fold induction at 10 µM? 0.5
